For each entry below, report its binding signal fold over 6E7 parental value.
Target: T1, human TREM2 (human, UniProt Q9NZC2 19-174, limits assumed)
T1 sequence: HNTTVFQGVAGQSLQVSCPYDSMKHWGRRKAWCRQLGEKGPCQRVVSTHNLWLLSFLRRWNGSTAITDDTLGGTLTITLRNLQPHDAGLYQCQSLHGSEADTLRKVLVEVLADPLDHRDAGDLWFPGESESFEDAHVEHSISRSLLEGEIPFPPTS
Assay: yeast-displayed Fab FACS, 2nd screen 100 nM
Just the number please, in fold, no unit attached.

Fill in binding signal fold over 6E7 parental for record V83 (Fab, V domains shown) VH: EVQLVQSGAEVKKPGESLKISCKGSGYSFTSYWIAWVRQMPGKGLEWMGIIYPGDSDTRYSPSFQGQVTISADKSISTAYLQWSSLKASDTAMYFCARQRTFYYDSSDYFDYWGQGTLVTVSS VL: DIQMTQSPSSVSASVGDRVTITCRASQGISSWLAWYQQKPGKAPKLLIYAASSLQNGVPSRFSGSGSGTDFTLTISSLQPEDFATYFCQQAVSFPRTFGQGTKLEIK
0.29

Using known records, supply binding signal fold over 6E7 parental for V55 (Fab, V domains shown) VH: EVQLVQSGAEVKKPGESLKISCKGSGYSFTSYWIAWVRQMPGKGLEWMGIIYPGDSDTIYSPSHQGQVTISADKSISTAYLQWSSLKASDTAMYFCARQRTFYYDSSDYFDYWGQGTLVTVSS VL: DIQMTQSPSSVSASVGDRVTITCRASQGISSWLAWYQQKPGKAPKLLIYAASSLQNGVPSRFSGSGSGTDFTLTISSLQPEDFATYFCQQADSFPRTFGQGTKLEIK
0.66

Answer with reported binding signal fold over 6E7 parental of V67 (Fab, V domains shown) VH: EVQLVQSGAEVKKPGESLKISCKGSGYSFTSYWIAWVRQMPGKGLEWMGMIYPGDSDTRYSPSFQGQVTISADKSISTAYLQWSSLKASDTAMYFCARQRTFYYDSSDYFDYWGQGTLVTVSS VL: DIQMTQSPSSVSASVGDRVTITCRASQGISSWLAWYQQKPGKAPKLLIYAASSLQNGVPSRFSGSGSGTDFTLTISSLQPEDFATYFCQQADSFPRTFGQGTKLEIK
0.84
